For each record, write down the corresponding pIC50 Category (Activity).
- testedSystem: Recombinant human FAP (R&D systems, #3715-SE) (human, UniProt Q12884 26-760)
- Sequence (Q12884 26-760 limits assumed): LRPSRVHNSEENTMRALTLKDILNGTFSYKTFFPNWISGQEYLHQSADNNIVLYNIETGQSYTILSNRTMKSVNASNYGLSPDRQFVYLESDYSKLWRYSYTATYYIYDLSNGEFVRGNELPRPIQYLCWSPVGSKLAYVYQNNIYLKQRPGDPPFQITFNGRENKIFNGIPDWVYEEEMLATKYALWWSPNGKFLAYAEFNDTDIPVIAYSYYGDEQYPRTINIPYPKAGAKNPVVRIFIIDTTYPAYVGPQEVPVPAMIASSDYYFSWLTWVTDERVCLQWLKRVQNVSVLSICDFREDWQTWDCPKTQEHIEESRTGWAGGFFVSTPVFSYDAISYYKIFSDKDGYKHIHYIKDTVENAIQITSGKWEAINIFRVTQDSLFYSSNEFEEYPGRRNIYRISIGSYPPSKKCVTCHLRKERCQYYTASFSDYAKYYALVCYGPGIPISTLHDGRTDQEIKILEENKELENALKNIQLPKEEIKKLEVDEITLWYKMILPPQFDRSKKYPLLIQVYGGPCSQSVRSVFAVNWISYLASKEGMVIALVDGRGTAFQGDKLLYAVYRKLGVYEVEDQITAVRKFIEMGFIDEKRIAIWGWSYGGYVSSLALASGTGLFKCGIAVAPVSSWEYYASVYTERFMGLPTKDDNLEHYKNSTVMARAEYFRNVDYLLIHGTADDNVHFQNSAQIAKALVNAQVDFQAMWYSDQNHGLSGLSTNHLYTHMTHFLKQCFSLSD
- assay: cell-based or functional assay
Numbered stars: 1 amine (or outer) side, 2 acyl side, 3 side chain; on linkers, the order of the positions; unused ones are H or OH. Bridge positions count the residues as written; N and C are the ends. Square brackets hold non-standard residues; d marks the D form. Primed or numbered codes have the meaning given here. * marks the point of attachment. Ttds″ = 1,13-diamino-4,7,10-trioxatridecan-succinamic acid spacer, O=C(CCC(=O)[*:2])NCCCOCCOCCOCCCN[*:1]; Ttds = 1,13-diamino-4,7,10-trioxatridecan-succinamic acid, O=C(CCC(=O)[*:2])NCCCOCCOCCOCCCN[*:1]; N4Ac = 6-Carboxy-1,4,8,11-tetraazaundecane, an N4-chelator, NCCNCC(CNCCN)C(=O)*; mXylylene = c1cc(C[*:1])cc(C[*:2])c1; Nle = CCCC[C@H](N)C(=O)O; Hexanoyl = CCCCCC(=O)*; Ahx = NCCCCCC(=O)O

**Q:** Can you look up the measured pIC50 Category (Activity) of H-[Ahx][Ttds][Nle]CPPTQFCD-NH2 (linker 4-10 via mXylylene; SMILES CCCC[C@H](NC(=O)CCC(=O)NCCCOCCOCCOCCCNC(=O)CCCCCN)C(=O)N[C@H]1CSCc2cccc(c2)CSC[C@@H](C(=O)N[C@@H](CC(=O)O)C(N)=O)NC(=O)[C@H](Cc2ccccc2)NC(=O)[C@H](CCC(N)=O)NC(=O)[C@H]([C@@H](C)O)NC(=O)[C@@H]2CCCN2C(=O)[C@@H]2CCCN2C1=O, also called 3BP-3980) [H-Ahx-Ttds-Nle-[Cys-(3MeBn)-Pro-Pro-Thr-Gln-Phe-Cys]-Asp-NH2] for me?
**A:** > 8 pIC50

**Q:** Quick one: Hexanoyl-CPPTQFCD-NH2 (linker 1-7 via tMeBn(H-O2Oc-AET), also called 3BP-4003) [Hex-[Cys-(tMeBn(H-O2Oc-AET))-Pro-Pro-Thr-Gln-Phe-Cys]-Asp-NH2]
**A:** > 8 pIC50

**Q:** Also N4Ac-[Ttds″][Nle]CPPTEFC-OH (linker 3-9 via mXylylene; SMILES CCCC[C@H](NC(=O)CCC(=O)NCCCOCCOCCOCCCNC(=O)C(CNCCN)CNCCN)C(=O)N[C@H]1CSCc2cccc(c2)CSC[C@@H](C(=O)O)NC(=O)[C@H](Cc2ccccc2)NC(=O)[C@H](CCC(=O)O)NC(=O)[C@H]([C@@H](C)O)NC(=O)[C@@H]2CCCN2C(=O)[C@@H]2CCCN2C1=O, also called 3BP-4161) [N4Ac-Ttds-Nle-[Cys-(3MeBn)-Pro-Pro-Thr-Glu-Phe-Cys]-OH] , if possible.
**A:** > 8 pIC50
